# testSystem: Aβ42 (Homo sapiens)
# Sequence (P05067 672-713): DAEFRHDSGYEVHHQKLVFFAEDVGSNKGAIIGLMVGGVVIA
# measurementNotes: Th-T (thioflavin-T) assay of Aβ42 aggregation
# Format: biochemical
# condition: column suffix _20; reading M105
Would you mind telling me the reported Fig. 7a Th-T reading, mean of three wells of each entry?
Give bare numbers.

Below, 4 compounds whose answers are already recorded.
C=C1CC[C@@H]2[C@](C)(CC[C@H]3O[C@H](C=C(C)C)C[C@@]23C)[C@@H]1Cc1c(OC)oc(CO)c(C(=O)OC)c1=O : 0.9387
C=C1CCC2C(C)(CCC=C(C)C)C(O)CCC2(C)C1Cc1c(OC)oc(CO)c(C(=O)OC)c1=O (centres unmarked) : 1.05
C=C1CC[C@@H]2[C@](C)(CC[C@H]3O[C@H](C=C(C)C)C[C@@]23C)[C@@H]1Cc1c(OC)oc(CO)c(C)c1=O : 3.269
C=C1CCC2C(C)(CCC=C(C)C)C(O)CCC2(C)C1Cc1c(OC)oc(C)c(C(=O)OC)c1=O (centres unmarked) : 1.714

Read the entry C=C1CCC2C(C)(CCC=C(C)C)C(O)CCC2(C)C1Cc1c(OC)oc(CO)c(C)c1=O (centres unmarked) and write its reported Fig. 7a Th-T reading, mean of three wells. 2.097

---

# measurementNotes: cytotoxicity in Drosophila DL1 cells
# Format: cell-based
# condition: Drosophila, DL1 cells (embryonic macrophage-derived), DL1 cells, 0.2 µM, replicate 1, relative to DMSO 1%; read-out: % viability, viability 1
Would you mind telling me the reported viability at 0.2 µM of each entry?
One number for each entry, in %.

C=C1CCC2C(C)(CCC=C(C)C)C(O)CCC2(C)C1Cc1c(OC)oc(C)c(C(=O)OC)c1=O (stereo not shown) : 94.8
C=C1CC[C@@H]2[C@](C)(CC[C@H]3O[C@H](C=C(C)C)C[C@@]23C)[C@@H]1Cc1c(OC)oc(CO)c(C)c1=O : 171
C=C1CCC2C(C)(CCC=C(C)C)C(=O)CCC2(C)C1Cc1c(O)c(C)c(C)oc1=O (stereo not shown) : 185
C=C1CCC2C(C)(CCC=C(C)C)C(O)CCC2(C)C1Cc1c(O)c(C)c(C)oc1=O (stereo not shown) : 190

Dear colleague, could you send me viability at 0.2 µM for each of the items below? Thanks.
1. C=C1CC[C@@H]2[C@](C)(CC[C@H]3O[C@H](C=C(C)C)C[C@@]23C)[C@@H]1Cc1c(OC)oc(CO)c(C(=O)OC)c1=O
2. C=C1CC[C@H]2[C@]3(C)C[C@H](C=C(C)C)O[C@H]3CC[C@]2(C)[C@@H]1Cc1c(OC)oc(C)c(C)c1=O
3. C=C1CC[C@H]2[C@]3(C)C[C@H](C=C(C)C)O[C@H]3CC[C@]2(C)[C@@H]1Cc1c(O)c(C)c(C)oc1=O

1. 4.01
2. 41.3
3. 23.9

Dear colleague, could you send me viability at 0.2 µM for each of the items below? Thanks.
1. C=C1CCC2C(C)(CCC=C(C)C)C(O)CCC2(C)C1Cc1c(OC)oc(CO)c(C(=O)OC)c1=O (stereo not shown)
2. C=C1CCC2C(C)(CC(=O)C=C(C)C)C(O)CCC2(C)C1Cc1c(OC)oc(CO)c(C)c1=O (stereo not shown)
3. C=C1CCC2C(C)(CC(=O)C=C(C)C)C(O)CCC2(C)C1Cc1c(OC)oc(C)c(C)c1=O (stereo not shown)

1: 78.9; 2: 78.6; 3: 130

---

# testSystem: Aβ42 (Homo sapiens)
# measurementNotes: Th-T (thioflavin-T) assay of Aβ42 aggregation
# Type: biochemical
# condition: column suffix _10; reading M15
Simple rule here: Th-T assay signal, mean of three wells (Fig. 7a) less than 1 is t, otherwise f.

C=C1CCC2C(C)(CCC=C(C)C)C(O)CCC2(C)C1Cc1c(OC)oc(C)c(C(=O)OC)c1=O (centres unmarked) [Compound 14] : f
C=C1CC[C@@H]2[C@](C)(CC[C@H]3O[C@H](C=C(C)C)C[C@@]23C)[C@@H]1Cc1c(OC)oc(CO)c(C(=O)OC)c1=O [Compound 21] : t
C=C1CCC2C(C)(CCC=C(C)C)C(O)CCC2(C)C1Cc1c(OC)oc(CO)c(C(=O)OC)c1=O (centres unmarked) [Compound 13] : t
C=C1CCC2C(C)(CCC=C(C)C)C(O)CCC2(C)C1Cc1c(OC)oc(CO)c(C)c1=O (centres unmarked) [Compound 12] : f

Consider now this further molecule.
Lab log: compare recorded Th-T assay signal, mean of three wells (Fig. 7a) with 1; is it strictly lower for C=C1CC[C@@H]2[C@](C)(CC[C@H]3O[C@H](C=C(C)C)C[C@@]23C)[C@@H]1Cc1c(OC)oc(CO)c(C)c1=O [Compound 20] ? f

---

# testSystem: Aβ42 (Homo sapiens)
# measurementNotes: Th-T (thioflavin-T) assay of Aβ42 aggregation
# Type: biochemical
# condition: column suffix _50; reading M88
Would you mind telling me the reported Fig. 7a Th-T reading, mean of three wells of each entry?
Answers are plain numbers.

C=C1CCC2C(C)(CCC=C(C)C)C(O)CCC2(C)C1Cc1c(OC)oc(CO)c(C)c1=O (centres unmarked) : 1.392
C=C1CC[C@@H]2[C@](C)(CC[C@H]3O[C@H](C=C(C)C)C[C@@]23C)[C@@H]1Cc1c(OC)oc(CO)c(C(=O)OC)c1=O : 0.4081
C=C1CCC2C(C)(CCC=C(C)C)C(O)CCC2(C)C1Cc1c(OC)oc(CO)c(C(=O)OC)c1=O (centres unmarked) : 0.4737
C=C1CC[C@@H]2[C@](C)(CC[C@H]3O[C@H](C=C(C)C)C[C@@]23C)[C@@H]1Cc1c(OC)oc(CO)c(C)c1=O : 2.092

Read the entry C=C1CCC2C(C)(CCC=C(C)C)C(O)CCC2(C)C1Cc1c(OC)oc(C)c(C(=O)OC)c1=O (centres unmarked) and write its reported Fig. 7a Th-T reading, mean of three wells. 1.897

---

# testSystem: UniProt:P05067
# measurementNotes: Th-T (thioflavin-T) assay of Aβ42 aggregation
# Type: biochemical
# condition: head suffix _10 (concentration 10); reading M71
Would you mind telling me the reported Th-T fluorescence of Aβ42 (sheet Fig. 7a), mean of three wells of each entry?
Answers are plain numbers.

Dear colleague, could you send me Th-T fluorescence of Aβ42 (sheet Fig. 7a), mean of three wells for each of the items below? Thanks.
1. C=C1CCC2C(C)(CCC=C(C)C)C(O)CCC2(C)C1Cc1c(OC)oc(CO)c(C(=O)OC)c1=O (centres unmarked)
2. C=C1CC[C@@H]2[C@](C)(CC[C@H]3O[C@H](C=C(C)C)C[C@@]23C)[C@@H]1Cc1c(OC)oc(CO)c(C)c1=O
3. C=C1CCC2C(C)(CCC=C(C)C)C(O)CCC2(C)C1Cc1c(OC)oc(CO)c(C)c1=O (centres unmarked)
4. C=C1CC[C@@H]2[C@](C)(CC[C@H]3O[C@H](C=C(C)C)C[C@@]23C)[C@@H]1Cc1c(OC)oc(CO)c(C(=O)OC)c1=O

[1.549, 3.423, 3.333, 0.8033]

Read the entry C=C1CCC2C(C)(CCC=C(C)C)C(O)CCC2(C)C1Cc1c(OC)oc(C)c(C(=O)OC)c1=O (centres unmarked) and write its reported Th-T fluorescence of Aβ42 (sheet Fig. 7a), mean of three wells. 2.719

---

# measurementNotes: cytotoxicity in Drosophila DL1 cells
# Type: cell-based
# condition: Drosophila, DL1 cells (embryonic macrophage-derived), DL1 cells, 4 µM, replicate 2, relative to DMSO 1%; read-out: % viability, viability 2
measurementType: viability at 4 µM (%)
Numbers only, in %.

Below, 3 compounds whose answers are already recorded.
C=C1CC[C@H]2[C@]3(C)C[C@@H](C=C(C)C)O[C@H]3CC[C@]2(C)[C@@H]1Cc1c(O)c(C)c(C)oc1=O : 4.03
C=C1CCC2C(C)(CCC=C(C)C)C(O)CCC2(C)C1Cc1c(OC)oc(CO)c(C(=O)OC)c1=O (centres unmarked) : 5.06
C=C1CC[C@H]2[C@]3(C)C[C@H](C=C(C)C)O[C@H]3CC[C@]2(C)[C@@H]1Cc1c(OC)oc(C)c(C)c1=O : 7.16

Dear colleague, could you send me viability at 4 µM for each of the items below? Thanks.
1. C=C1CC[C@@H]2[C@](C)(CC[C@H]3O[C@H](C=C(C)C)C[C@@]23C)[C@@H]1Cc1c(OC)oc(CO)c(C)c1=O
2. C=C1CC[C@H]2[C@]3(C)C[C@H](C=C(C)C)O[C@H]3CC[C@]2(C)[C@@H]1Cc1c(OC)oc(CO)c(C)c1=O
3. C=C1CCC2C(C)(CCC=C(C)C)C(O)CCC2(C)C1Cc1c(OC)oc(CO)c(C)c1=O (centres unmarked)
4. C=C1CCC2C(C)(CC(=O)C=C(C)C)C(O)CCC2(C)C1Cc1c(OC)oc(C)c(C)c1=O (centres unmarked)
5. C=C1CC[C@H]2[C@]3(C)C[C@@H](C=C(C)C)O[C@H]3CC[C@]2(C)[C@@H]1Cc1c(OC)oc(CO)c(C)c1=O
6. C=C1CCC2C(C)(CCC=C(C)C)C(=O)CCC2(C)C1Cc1c(O)c(C)c(C)oc1=O (centres unmarked)

21.2
5.08
5.72
124
20.1
20.6

Dear colleague, could you send me viability at 4 µM for each of the items below? Thanks.
1. C=C1CCC2C3(C)CC(C=C(C)C)OC3CCC2(C)C1Cc1c(OC)oc(C)c(C)c1=O (centres unmarked)
2. C=C1CCC2C(C)(CC(=O)C=C(C)C)C(O)CCC2(C)C1Cc1c(O)c(C)c(C)oc1=O (centres unmarked)
3. C=C1CCC2C(C)(CC(=O)C=C(C)C)C(O)CCC2(C)C1Cc1c(OC)oc(CO)c(C)c1=O (centres unmarked)
4. C=C1CCC2C(C)(CCC=C(C)C)C(O)CCC2(C)C1Cc1c(O)c(C)c(C)oc1=O (centres unmarked)

1: 7.75; 2: 117; 3: 80.7; 4: 22.6

Read the entry C=C1CC[C@H]2[C@]3(C)C[C@H](C=C(C)C)O[C@H]3CC[C@]2(C)[C@@H]1Cc1c(O)c(C)c(C)oc1=O and write its reported viability at 4 µM. 7.05
